TEST TARGET: EPHA1 (Homo sapiens)
Sequence (P21709 26-976): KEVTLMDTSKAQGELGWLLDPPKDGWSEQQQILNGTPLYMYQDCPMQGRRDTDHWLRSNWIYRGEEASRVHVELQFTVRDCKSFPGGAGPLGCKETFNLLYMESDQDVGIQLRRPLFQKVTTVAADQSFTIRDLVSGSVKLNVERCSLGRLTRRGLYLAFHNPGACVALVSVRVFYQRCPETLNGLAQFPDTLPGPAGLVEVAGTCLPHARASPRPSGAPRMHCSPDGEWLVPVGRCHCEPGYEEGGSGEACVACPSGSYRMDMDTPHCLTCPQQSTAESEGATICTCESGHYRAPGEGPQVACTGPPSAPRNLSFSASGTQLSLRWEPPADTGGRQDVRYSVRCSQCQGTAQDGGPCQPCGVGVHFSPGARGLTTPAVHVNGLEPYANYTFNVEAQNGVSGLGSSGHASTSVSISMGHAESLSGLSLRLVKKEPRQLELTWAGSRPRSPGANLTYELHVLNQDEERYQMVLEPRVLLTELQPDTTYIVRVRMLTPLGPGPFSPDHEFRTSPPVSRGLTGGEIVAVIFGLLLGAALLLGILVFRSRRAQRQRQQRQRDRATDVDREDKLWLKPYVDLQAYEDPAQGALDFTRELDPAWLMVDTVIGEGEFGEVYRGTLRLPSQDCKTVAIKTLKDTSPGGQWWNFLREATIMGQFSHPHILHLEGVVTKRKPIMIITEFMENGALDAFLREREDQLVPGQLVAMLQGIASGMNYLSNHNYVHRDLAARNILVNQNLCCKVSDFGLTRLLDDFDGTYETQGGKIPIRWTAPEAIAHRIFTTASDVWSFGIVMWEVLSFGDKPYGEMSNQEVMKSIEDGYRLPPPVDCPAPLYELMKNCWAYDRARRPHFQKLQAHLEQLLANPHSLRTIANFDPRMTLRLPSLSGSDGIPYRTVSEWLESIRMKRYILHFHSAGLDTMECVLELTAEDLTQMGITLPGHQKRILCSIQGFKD
pIC50: −log10 of the molar value.
OBSERVABLE: pIC50

Using the record for CC1=C(CC(=O)/C=C/c2cccc(CO)c2)C(=O)C=C2C1=CC=C1[C@@]2(C)CC[C@@]2(C)C3C[C@](C)(C(=O)CCc4nc(C(O)C(O)O)c(C)nc4C)CC[C@]3(C)CC[C@]12C (stereo partly shown) [CP1] , report its pIC50. < 4.52

----------
TEST TARGET: LYN (Homo sapiens, UniProt P07948)
Sequence (P07948 whole entry): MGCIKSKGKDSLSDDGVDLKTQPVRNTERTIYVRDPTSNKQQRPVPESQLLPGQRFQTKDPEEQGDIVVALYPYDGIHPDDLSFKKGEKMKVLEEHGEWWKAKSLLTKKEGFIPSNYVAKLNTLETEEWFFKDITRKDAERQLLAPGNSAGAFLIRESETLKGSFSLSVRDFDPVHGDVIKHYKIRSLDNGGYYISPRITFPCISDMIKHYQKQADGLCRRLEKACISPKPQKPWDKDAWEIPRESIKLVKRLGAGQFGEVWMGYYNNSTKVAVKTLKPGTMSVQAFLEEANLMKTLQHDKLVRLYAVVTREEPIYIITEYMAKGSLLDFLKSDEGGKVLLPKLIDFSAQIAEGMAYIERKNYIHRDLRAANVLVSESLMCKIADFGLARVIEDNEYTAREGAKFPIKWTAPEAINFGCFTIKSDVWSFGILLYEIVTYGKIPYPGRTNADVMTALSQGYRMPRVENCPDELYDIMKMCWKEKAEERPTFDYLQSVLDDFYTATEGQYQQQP
OBSERVABLE: IC50

GET /values?readout=IC50&system=LYN (Homo sapiens, UniProt P07948)&item= CC1=C(CC(=O)/C=C/c2cccc(CO)c2)C(=O)C=C2C1=CC=C1[C@@]2(C)CC[C@@]2(C)C3C[C@](C)(C(=O)CCc4nc(C(O)C(O)O)c(C)nc4C)CC[C@]3(C)CC[C@]12C (stereo partly shown) [CP1] > 30 µM
